Assay: Molar enthalpy of transition or fusion
Conditions: Crystal 1; DSC
measured.parameter: Molar enthalpy of transition or fusion (kcal/mol)

compound=CC[N+](C)(C)CCO.F[P-](F)(F)(F)(F)F measured_parameter="Molar enthalpy of transition or fusion" measured_number=2.53
compound=CCCCCCCCCCOn1cc[n+](OCCCCCCCCCC)c1C.O=S(=O)([N-]S(=O)(=O)C(F)(F)F)C(F)(F)F measured_parameter="Molar enthalpy of transition or fusion" measured_number=19
compound="CCCCOCn1cc[n+](COCCCC)c1.F[B-](F)(F)F [1,3-bis(butoxymethyl)-1H-imidazolium tetrafluoroborate]" measured_parameter="Molar enthalpy of transition or fusion" measured_number=2.04
compound=CC[N+](C)(C)CCO.F[B-](F)(F)F measured_parameter="Molar enthalpy of transition or fusion" measured_number=1.23
compound=CCCCCCCCOCn1cc[n+](COCCCCCCCC)c1.O=S(=O)([N-]S(=O)(=O)C(F)(F)F)C(F)(F)F measured_parameter="Molar enthalpy of transition or fusion" measured_number=8.17
compound="CC[N+](C)(C)CCO.N#C[N-]C#N [N-ethyl-2-hydroxyethyl-N,N-dimethylammonium dicyanamide]" measured_parameter="Molar enthalpy of transition or fusion" measured_number=2.06
compound="CCCC[N+](C)(C)CCO.[Br-] [N-(2-hydroxyethyl)-N,N-dimethylbutanaminium bromide]" measured_parameter="Molar enthalpy of transition or fusion" measured_number=3.16
